Kindly find below Ki information for UniProt:P31391 taken from the literature.
Sequence (P31391 whole entry): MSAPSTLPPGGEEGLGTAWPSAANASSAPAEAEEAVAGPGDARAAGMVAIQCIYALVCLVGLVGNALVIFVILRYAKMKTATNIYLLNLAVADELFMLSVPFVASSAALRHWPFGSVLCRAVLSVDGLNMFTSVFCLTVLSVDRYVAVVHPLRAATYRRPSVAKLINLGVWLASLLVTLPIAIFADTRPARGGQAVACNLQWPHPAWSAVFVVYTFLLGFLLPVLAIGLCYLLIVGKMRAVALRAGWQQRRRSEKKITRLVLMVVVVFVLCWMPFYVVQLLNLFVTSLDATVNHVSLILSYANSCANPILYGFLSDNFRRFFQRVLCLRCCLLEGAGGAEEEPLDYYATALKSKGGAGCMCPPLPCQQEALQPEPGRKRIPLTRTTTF
Give the number first and the unit second.

Data point: CC(O)[C@@H](NC(=O)[C@H](CCCCN)NC(=O)[C@@H](Cc1c[nH]c2ccccc12)NC(=O)[C@H](Cc1ccc(O)cc1)NC(=O)C(Cc1ccccc1)NC(=O)C(N)CS)C(=O)NC(Cc1ccccc1)C(=O)NC(CS)C(N)=O (stereo partly drawn) ; Ki = 3.36 nM

Ki reading for `CC[C@@H]1NC(=O)[C@H](CCCCN)NC(=O)[C@@H](Cc2c[nH]c3ccccc23)NC(=O)[C@H](Cc2ccc(O)cc2)NC(=O)[C@@H](NC(=O)[C@H](N)Cc2ccccc2)CSSC[C@@H](C(=O)N[C@H](C(N)=O)[C@@H](C)O)NC1=O` : 1000 nM

// sample `C[C@H](N)COC(=O)[C@H](CCCCN)NC(=O)Cc1c(-c2ccc3ccccc3c2)[nH]c2c1ccc1ccccc12` , its Ki was 82 nM

* * *

A compilation of published pKi results with UniProtKB P31391.
pKi here: minus log base 10 of the concentration, concentration in moles per litre.

Record summary for COC(=O)C(CCCNC(=N)N)NC(=O)CCCc1c(-c2ccccc2)[nH]c2c(F)cc(F)cc12 (centres undefined) : reported pKi = 9.15

GET /value?item= `C[C@@H](O)[C@H](NC(=O)[C@@H]1CSSC[C@H](NC(=O)[C@H](N)Cc2ccc3ccccc3c2)C(=O)N[C@@H](Cc2ccc(O)cc2)C(=O)N[C@H](Cc2c[nH]c3ccccc23)C(=O)N[C@@H](CCCCN)C(=O)N[C@@H]([C@@H](C)O)C(=O)N1)C(N)=O` &field=pKi returns 7.24

Looking up `CC(=O)N[C@@H](Cc1ccc([N+](=O)[O-])cc1)C(=O)N[C@@H]1CSSC[C@@H](C(=O)N[C@H](Cc2ccc(O)cc2)C(N)=O)NC(=O)[C@H]([C@@H](C)O)NC(=O)[C@H](CCCCN)NC(=O)[C@@H](Cc2c[nH]c3ccccc23)NC(=O)[C@H](Cc2ccc(O)cc2)NC1=O` , I see its pKi listed as 5.76
